Target: T1, canine NGF (canine, UniProt Q29074 110-229 (pig entry), limits assumed)
T1 construct: The protein was secreted from CHO cells and purified; also called cNGF; canine β-NGF
T1 chain: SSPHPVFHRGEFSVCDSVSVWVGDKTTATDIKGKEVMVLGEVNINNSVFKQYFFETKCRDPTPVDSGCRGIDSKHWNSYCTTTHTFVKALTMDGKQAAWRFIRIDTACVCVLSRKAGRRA
Experiment: SPR (Biacore T200), 100 nM mAb on NGF chip, similarity to parent mAb
From the text: The region of an antibody responsible for antigen recognition represents the paratope. A paratope is created by a combination of amino acids in the complementarity determining regions (CDRs) of both the heavy and light chain variable regions. The binding between antibody and antigen is often mediated by side chains of CDR residues with side chains or carbohydrate moieties of the antigen. […]
ASSAY ENDPOINT: Percent Similarity Score (KD on cN)

BINDER	ENDPOINT VALUE
can9L12VH_S57A (antibody, V domains shown) VH: EVQLVESGGDLVKPGGSLRLSCVASGFTFSSHGMHWVRQSPGKGLQWVAVINSGGSATYYTDAVKGRFTISRDNAKNTVYLQMNSLRAEDTAMYYCAKESVGGWEQLVGPHFDYWGQGTLVIVSS VL: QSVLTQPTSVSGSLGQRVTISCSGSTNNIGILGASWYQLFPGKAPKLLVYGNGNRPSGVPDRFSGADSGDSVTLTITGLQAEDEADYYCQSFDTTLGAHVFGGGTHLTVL	89.9%
can48L2VL_F32A (antibody, V domains shown, CDR scanning mutant of ZTS-842 (48L2)) VH: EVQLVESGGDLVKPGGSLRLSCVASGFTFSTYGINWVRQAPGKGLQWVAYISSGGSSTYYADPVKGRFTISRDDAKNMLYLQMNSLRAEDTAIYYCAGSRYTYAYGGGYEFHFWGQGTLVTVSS VL: QAVLNQPASVSGALGQKVTISCSGSTMDIDIAGVSWYQQLPGKAPKLLVDSDGDRPSGIPDRFSGSRSGNSGTLTITGLQAEDEADYHCQSGDSTLGALAIFGGGTHVTVL	19.6%
can9L12VH_H32A (antibody, V domains shown) VH: EVQLVESGGDLVKPGGSLRLSCVASGFTFSSAGMHWVRQSPGKGLQWVAVINSGGSSTYYTDAVKGRFTISRDNAKNTVYLQMNSLRAEDTAMYYCAKESVGGWEQLVGPHFDYWGQGTLVIVSS VL: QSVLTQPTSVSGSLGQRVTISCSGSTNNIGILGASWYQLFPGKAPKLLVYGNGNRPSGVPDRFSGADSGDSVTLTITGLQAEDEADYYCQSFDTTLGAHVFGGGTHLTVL	38.2%
